# subject.of.test: His-tagged human Mcl-1 (human) (UniProt Q07820)
# Sequence (Q07820 whole entry): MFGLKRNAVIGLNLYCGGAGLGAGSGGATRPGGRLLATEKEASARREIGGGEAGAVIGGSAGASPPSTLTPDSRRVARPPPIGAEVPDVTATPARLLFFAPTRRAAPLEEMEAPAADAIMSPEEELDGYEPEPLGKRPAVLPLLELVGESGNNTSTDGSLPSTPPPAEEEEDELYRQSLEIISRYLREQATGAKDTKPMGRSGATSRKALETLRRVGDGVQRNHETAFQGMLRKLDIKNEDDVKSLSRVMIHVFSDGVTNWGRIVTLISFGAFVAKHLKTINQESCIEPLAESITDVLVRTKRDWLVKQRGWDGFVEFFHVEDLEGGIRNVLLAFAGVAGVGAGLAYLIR
# experiment.summary: SPR; Biacore S200; Bcl-2 family proteins immobilised on CM5 (amine coupling or His-Capture Kit); peptides and flag-tagged proteins as analytes, single-cycle kinetics, HBS-EP, 25 °C; 1:1 Langmuir model; absence of binding probed at 100 nM and 3 µM
readout: Kd (nM)
Dear colleague, please return just the value in nM, with no unit written.

IN: # query: Kd of entry ESQEDIIRNIARHLAQVGDSMDRSI [Bid BH3 peptide (25-mer, residues 77-101)]
OUT: 12.8
